Target: T1, recombinant full-length mouse MASP-3 (mouse)
T1 construct: Entry is with leader; also called mouse full length MASP-3
T1 chain: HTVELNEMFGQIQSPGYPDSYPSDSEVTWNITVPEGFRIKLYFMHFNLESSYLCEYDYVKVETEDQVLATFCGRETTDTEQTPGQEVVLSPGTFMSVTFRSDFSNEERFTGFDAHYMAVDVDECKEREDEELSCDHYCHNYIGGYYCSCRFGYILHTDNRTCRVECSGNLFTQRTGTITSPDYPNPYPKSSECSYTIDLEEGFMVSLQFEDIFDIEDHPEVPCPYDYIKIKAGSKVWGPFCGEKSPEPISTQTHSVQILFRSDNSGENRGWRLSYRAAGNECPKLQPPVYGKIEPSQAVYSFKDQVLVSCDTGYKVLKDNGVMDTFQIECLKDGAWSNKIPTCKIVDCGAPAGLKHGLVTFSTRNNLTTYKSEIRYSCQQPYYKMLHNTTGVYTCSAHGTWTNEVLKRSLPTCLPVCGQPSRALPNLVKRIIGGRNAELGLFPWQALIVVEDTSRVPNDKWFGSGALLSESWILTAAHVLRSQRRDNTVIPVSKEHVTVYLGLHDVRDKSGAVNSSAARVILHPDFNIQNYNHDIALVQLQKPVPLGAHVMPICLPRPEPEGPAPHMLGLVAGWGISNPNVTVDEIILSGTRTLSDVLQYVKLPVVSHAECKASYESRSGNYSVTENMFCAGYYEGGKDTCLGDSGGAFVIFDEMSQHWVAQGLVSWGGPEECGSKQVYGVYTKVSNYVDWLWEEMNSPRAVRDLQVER
Experiment: sandwich ELISA, full-length mouse MASP-3 captured by αM3-259
The following binders are listed with their measured pEC50 values.
Answer as the number alone; pEC50 is minus log10 of concentration in mol/L.

Use these answered entries as a reference point.
binder	recorded.result
MASP-3 mAb 1E7 (mouse-human chimeric IgG4) (antibody, V domains shown) VH: QVQLKQSGPELARPWASVKISCQAFYTFSRRVHFAIRDTNYWMQWVKQRPGQGLEWIGAIYPGNGDTSYNQKFKGKATLTADKSSSTAYMQLSSLTSEDSAVYYCASGSHYFDYWGQGTTLTVSS VL: DIQLTQSPAILSVSPGERVSFSCRASQSIGTSIHWYQQRTNGSPRLLIKYASESISGIPSRFSGSGSGTDFTLSINSVESEDIADYYCQQSNSWPYTFGGGTKLEIKR	6.93
MASP-3 mAb 1G4 (mouse-human chimeric IgG4) (antibody, V domains shown) VH: QVQLKQSGAELMKPGASVKLACKATGYTFTGYWIEWIKQRPGQGLEWIGEMLPGSGSTHYNEKFKGKATFTADTSSNTAYMQLSGLTTEDSAIYYCVRSIDYWGQGTTLTVSS VL: DVLMTQTPLSLPVSLGEQASISCRSSQSLVQSNGNTYLHWYLQKPGQSPKLLIYKVSNRFSGVPDRFSGSGSGTDFTLKISRVEAEDLGVYFCSQSTHVPPTFGGGTKLEIKR	8.43

Give the value of pEC50 reported for the following: MASP-3 mAb 2F2 (mouse-human chimeric IgG4) (antibody, V domains shown) VH: QVQLKQSGAELVTPGASVKMSCKASGYTFTTYPIEWMKQNHGKSLEWIGNFHPYNDDTKYNEKFKGKATLTVEKSSNTVYLELSRLTSDDSAVYFCARRVYYSYFWFGYWGHGTLVTVSS VL: DIVMTQSQKFMSTSVGDRVNVTCKASQNVGTHVAWYQQKPGQSPKALIYSASYRYSGVPDRFTGSGSGTDFTLTISNVQSEDLAEYFCQQYNSYPRALTFGAGTKLELKR
9.98

Give the value of pEC50 reported for the following: MASP-3 mAb 2F5 (mouse-human chimeric IgG4) (antibody, V domains shown) VH: EVQLQQPGAELVKPGASVKMSCKASGYTFTSYWITWVKQRPGQGLEWIGDIYPGSGSTNYNEKFKSKATLTVDTSSSTAYMQLSSLTSEDSAVYYCARRRYYATAWFAYWGQGTLVTVSS VL: DIVMTQSQKFMSTSVGDRVSITCKASQNVGTAVAWYQQKPGQSPKLLISSASNRYTGVPDRFTGSGSGTDFTLTISNMQSEDVADYFCQQYNSYPLTFGAGTKLELKR
9.99

Give the value of pEC50 reported for the following: MASP-3 mAb 4D5 (mouse-human chimeric IgG4) (antibody, V domains shown) VH: QVQLKQSGPELVKPGASVKLSCKASGYTFTTDDINWVKQRPGQGLEWIGWIYPRDDRTKYNDKFKDKATLTVDTSSNTAYMDLHSLTSEDSAVYFCSSLEDTYWGQGTLVAVSS VL: DIVMTQSPSSLAVSAGEKVTMTCKSSQSLLNSRTRKNYLAWYQQKPGQSPKLLIYWASTRESGVPDRFTGSGSGTDFSLTISSVQAEDLAVYYCKQSYNLYTFGGGTKLEIKR
10.01
